Sourced from PubChem BioAssay (NCI)

Tested on: M19-MEL melanoma
Test protocol: NCI tumour cell line growth inhibition, 48 h
Where a SMILES comes first, the peptide text is derived from it. [ ]: non-standard residue; d: D form. The star is where a group is joined. ξ: configuration not given here. X3 = COc1ccc(C(N*)c2ccc(OC)cc2)cc1; NMeF = CN[C@@H](Cc1ccccc1)C(=O)O; NMeD = CN[C@@H](CC(=O)O)C(=O)O; NMeV = CN[C@H](C(=O)O)C(C)C; ξNMeV = CNC(C(=O)O)C(C)C; Boc = CC(C)(C)OC(=O)*; ξNMeA = CNC(C)C(=O)O; ξV = CC(C)C(N)C(=O)O
Returns YES if the recorded TGI is greater than or equal to 20 µM, and NO otherwise.

## Input Would you say O=C(/C=C/c1ccc([N+](=O)[O-])cc1)c1ccc(NCc2nc3ccccc3[nH]2)cc1 shows TGI at minimum 20 µM?
## Output NO

## Input Tell me whether TGI is at least 20 µM here: COc1ccc(C)cc1-c1cc(Sc2ccccc2)c(-c2cc(C)ccc2OC)o1
## Output YES

## Input Decide: is the reported value of TGI for Cc1ccc(/C=C/C(=O)CCN(C)C)cc1 equal to or greater than 20 µM?
## Output YES

## Input In plain terms: is recorded TGI at least 20 µM for COC(=O)[C@@H](O)[C@](O)(CCC(C)C)C(=O)O[C@@H]1C(OC)=C[C@]23CCCN2CCc2cc4c(cc2[C@H]13)OCO4 ?
## Output NO

## Input Determine whether measured TGI meets or exceeds 20 µM for CCCCCCCC/C=C\CCCCCCCCCCCC(=O)O
## Output YES

## Input hey, is TGI for this one >= 20 µM? O=C(Nc1ccccc1-c1nn(C(=S)Nc2ccccc2)c(=S)n(C(=S)Nc2ccccc2)c1=O)C(F)(F)F
## Output YES

## Input Kindly determine if TGI recorded for c1ccc(NCn2cnc3ccccc32)cc1 is above or exactly 20 µM.
## Output YES

## Input Reported TGI at or above 20 µM? COc1ccc(C(NC(=O)C[C@@H](C(=O)N(C)C(C)C(=O)O)N(C)C(=O)[C@@H]2CCCN2C(=O)[C@H](C(C)C)N(C)C(=O)C(C(C)C)N(C)C(=O)[C@H](Cc2ccccc2)N(C)C(=O)C(NC(=O)OC(C)(C)C)C(C)C)c2ccc(OC)cc2)cc1 (some centres undefined) (Boc-[ξV][NMeF][ξNMeV][NMeV]P[NMeD](X3)[ξNMeA]-OH)
## Output YES

## Input Item C=CC[C@H](C[C@H](C[C@H](C[C@H](C[C@H](C[C@H](C[C@H](C[C@H](C[C@H](C[C@H](CCCCC)OC)OC)OC)OC)OC)OC)OC)OC)OC)OC with TGI of 20 µM or above?
## Output YES

---

Field: TGI. Provide a value for each of the compounds that follow.
Tested on: DU-145 prostate
Test protocol: NCI tumour cell line growth inhibition, 48 h
Enter your answer as a number in µM; do not include the unit.

## Input Could you share what TGI was measured for Nc1n[nH]c2cccc(C#Cc3cccc(C(=O)Nc4ccc(CN5CCOCC5)c(C(F)(F)F)c4)c3)c12 , tested on DU-145 prostate?
## Output 13.3

## Input Please state recorded TGI (tested on DU-145 prostate) of CCCCCC1=CC(=O)C1(Cl)Cl
## Output 26.1

---

So I've got a bunch of compounds here, and I need their GI50 values.
Test system: EKVX NSCLC
Test protocol: NCI tumour cell line growth inhibition, 48 h

## Input Requested field: GI50. Item: CCCCCCCCCCCCC(O)c1ccc(C#CCCCCCCCCCO)o1 (centres undefined)
## Output 22.2 µM

## Input Find the recorded GI50 belonging to C[C@]12CCC3c4ccc(O)cc4CCC3C1CC[C@@]2(O)CNC(=O)/C=C/c1ccc(O)c(O)c1 (some centres undefined) and report it.
## Output 9.97 µM

## Input Name the reported GI50 value associated with the compound Cn1ccc2c3c(Oc4ccc(NC(N)=O)cc4)ccnc3ccc21
## Output > 100 µM

## Input # input compound: c1ccc(Sc2ncnc3ccccc23)cc1 ; wanted: its GI50
## Output 10.6 µM

---

System: MDA-MB-435
Test protocol: NCI tumour cell line growth inhibition, 48 h
Where a SMILES comes first, the peptide text is derived from it. [ ]: non-standard residue; d: D form. The star is where a group is joined. ξ: configuration not given here. X3 = COc1ccc(C(N*)c2ccc(OC)cc2)cc1; NMeF = CN[C@@H](Cc1ccccc1)C(=O)O; NMeD = CN[C@@H](CC(=O)O)C(=O)O; NMeV = CN[C@H](C(=O)O)C(C)C; ξNMeV = CNC(C(=O)O)C(C)C; Boc = CC(C)(C)OC(=O)*; ξNMeA = CNC(C)C(=O)O; ξV = CC(C)C(N)C(=O)O
So I've got a bunch of compounds here, and I need their TGI values.
Expressed in µM, but write only the number.

## Input # query: TGI of entry Nn1c(Nc2ccc(S(=O)(=O)Nc3ncccn3)cc2)nnc(/C=C/c2c(O)ccc3ccccc23)c1=O
## Output 69.4

## Input Which measured TGI value corresponds to Nc1c(C(=O)Nc2cccc(C(F)(F)F)c2)sc2nc3c(cc12)CCCCC3 ?
## Output 63.1

## Input Name the reported TGI value associated with the compound CCCCCCCCCCCCC(O)c1ccc(C#CCCCCCCCCCO)o1 (centres undefined)
## Output 34.3

## Input Name the recorded TGI for COc1ccc(C(NC(=O)C[C@@H](C(=O)N(C)C(C)C(=O)O)N(C)C(=O)[C@@H]2CCCN2C(=O)[C@H](C(C)C)N(C)C(=O)C(C(C)C)N(C)C(=O)[C@H](Cc2ccccc2)N(C)C(=O)C(NC(=O)OC(C)(C)C)C(C)C)c2ccc(OC)cc2)cc1 (some centres undefined) (Boc-[ξV][NMeF][ξNMeV][NMeV]P[NMeD](X3)[ξNMeA]-OH) .
## Output 20

## Input // returns reported TGI for input O=C(OCc1ccccc1)N1CCNCCN(C(=O)OCc2ccccc2)CCNCC1
## Output 64.6

## Input Fill blank: measured TGI of the compound CC(C)=CCC(O)C1=CC(=O)c2c(O)ccc(O)c2C1=O (centres undefined) is ____.
## Output 2.82

## Input Given the entry O=C(Nc1ccc(Oc2ccc(Nc3nc4ccccc4s3)cc2)cc1)Nc1ccc(Cl)c(C(F)(F)F)c1 , report its measured TGI.
## Output 3

## Input Dear colleague, I am looking for the recorded TGI of the following compound: COc1ccc2nc3cc(Cl)ccc3c(NCCNCC(C)O)c2c1 (centres undefined)
## Output 3.1

## Input For the compound shown here, O=C(CCCSc1nc(-c2ccccc2)cc(-c2ccccc2)n1)NO , give the reported TGI.
## Output 10.1

## Input Can you look up the measured TGI of COCCOc1ccc(-c2nc3ccc(-c4nc5ccc(N6CCN(C)CC6)cc5[nH]4)cc3[nH]2)cc1 for me?
## Output 2.14

## Input Look at this compound and give its reported TGI. CC(C)[C@@H]1C=C2CC[C@H]3[C@](C)(CN)CCC[C@]3(C)[C@H]2CC1
## Output 4.2

## Input So what does the record say about TGI for CCCCOC(=O)Nc1ccc(S(=O)(=O)Nc2ccccc2Cl)cc1 ?
## Output 36

---

System: NCI/ADR-RES ovarian
Test protocol: NCI tumour cell line growth inhibition, 48 h; in the data active = GI50 below about 0.43 µM; inactive = the rest
Outcome field: choose from Yes for active, No for inactive

## Input Write down the call the test reported for this molecule. Item: C[C@]12CCC3c4ccc(O)cc4CCC3C1CC[C@@]2(O)CNC(=O)/C=C/c1ccc(O)c(O)c1 (stereo partly specified)
## Output No

## Input # lookup: test call for CN(C)c1cc(NN=C(c2ccc(O)cc2)c2ccc(O)cc2)c([N+](=O)[O-])cc1[N+](=O)[O-]
## Output No

## Input Which outcome was entered for the molecule O=C1CCCCN1c1ccccc1C#C/C=C\C#Cc1ccccc1C(F)(F)F in this test?
## Output No

## Input Can you look up the reported call for Nc1c(C(=O)Nc2cccc(C(F)(F)F)c2)sc2nc3c(cc12)CCCCC3 for me?
## Output No

## Input What classification did CN1CC[C@@H](NC(=O)Nc2ccc(C#N)cc2)C[C@@H]1c1nc2ccccc2[nH]1 end up with in this test?
## Output No

## Input Could you check what this test reported for N#Cc1c[nH]n2c(N=Nc3ccc(Cl)cc3)c(O)nc12 ?
## Output No

## Input # outcome recorded in this test, key = Cn1ccc2c3c(Oc4ccc(NC(N)=O)cc4)ccnc3ccc21
## Output No

## Input Kindly provide the recorded test outcome for the following molecule: COc1cccc(C(=O)NC(c2ccc(C)cc2)c2cc(Cl)c3cccnc3c2O)c1 (stereo unspecified)
## Output Yes

## Input Answer briefly: the call reported for Cc1ccc(-n2c3nc(=O)[nH]c(=O)c-3cc3cc([N+](=O)[O-])ccc32)cc1 in this assay.
## Output No

## Input Entry COc1ccc(CCN=C2NC(=O)/C(=C/c3ccc4ncccc4c3)S2)cc1 : call = ?
## Output No

## Input How did this test come out for C=C1C(=O)O[C@H]2[C@H]1CC/C(COC(=O)NCc1ccc(Cn3c(=O)sn(-c4ccc(OC)cc4)c3=O)cc1)=C\CC[C@@]1(C)O[C@@H]21 ?
## Output No

## Input Which outcome was entered for the molecule Nc1n[nH]c2cc(F)c([C@@H]3Nc4ccc5[nH]ncc5c4[C@H]4C5CCC(C5)[C@@H]34)cc12 (stereo partly specified) in this test?
## Output Yes

## Input Query: recorded result category for COc1ccc2[nH]cc(/C=C(/C)c3ccncc3)c2c1 in this test
## Output No

## Input Any idea what this test logged for Nc1n[nH]c2cccc(C#Cc3cccc(C(=O)Nc4ccc(CN5CCOCC5)c(C(F)(F)F)c4)c3)c12 ?
## Output No

## Input Query: recorded result category for Nc1cc(NN=C(c2ccc(O)cc2)c2ccc(O)cc2)c([N+](=O)[O-])cc1[N+](=O)[O-] in this test
## Output No

## Input What classification did O=C(Nc1ccc(Oc2ccc(Nc3nc4ccccc4s3)cc2)cc1)Nc1ccc(Cl)c(C(F)(F)F)c1 end up with in this test?
## Output No
